Measured log10 IC50, listed per entry for reference.
- SYSTEM_TESTED: HLA-DR DRB1*0802 (DR8) (Homo sapiens, UniProt P01903+P01911, A100R/A103L/A169T/F76Y/H45Y/I96F/K41T/L162R/M171V/P40S/Q125H/Q178H/Q39Y/Q99D/R218S/R42G/S66Y/V115G/W38E)
- ASSAY_PROCEDURE: biochemical
- Assay type: binding
VALUE_KIND: log10 IC50 (log10 of the value in µM)

CC[C@H](C)[C@H](NC(=O)[C@@H]1CCCN1)C(=O)N[C@@H](CC(C)C)C(=O)N[C@@H](CC(C)C)C(=O)N[C@@H](Cc1c[nH]c2ccccc12)C(=O)N[C@@H](CCC(N)=O)C(=O)N1CCC[C@H]1C(=O)N[C@H](C(=O)N1CCC[C@H]1C(=O)N[C@H](C(=O)N[C@@H](Cc1c[nH]cn1)C(=O)N[C@H](C(=O)N[C@H](C(=O)N1CCC[C@H]1C(=O)N[C@@H](CC(C)C)C(=O)O)C(C)C)[C@@H](C)O)C(C)C)[C@@H](C)CC | 1.33
CC[C@H](C)[C@H](N)C(=O)N[C@@H](C)C(=O)NCC(=O)N[C@@H](CC(C)C)C(=O)N[C@@H](Cc1ccccc1)C(=O)N[C@@H](CC(C)C)C(=O)N[C@H](C(=O)N[C@H](C(=O)N[C@@H](CCC(=O)O)C(=O)N[C@@H](C)C(=O)N[C@H](C(=O)N[C@H](C(=O)N[C@@H](C)C(=O)N[C@@H](CC(=O)O)C(=O)N[C@@H](CCCCN)C(=O)O)C(C)C)C(C)C)[C@@H](C)O)[C@@H](C)O | 0.59
CC[C@H](C)[C@H](NC(=O)[C@H](CO)NC(=O)[C@H](CC(C)C)NC(=O)[C@@H](NC(=O)[C@H](CC(C)C)NC(=O)[C@H](CC(=O)O)NC(=O)[C@H](Cc1c[nH]c2ccccc12)NC(=O)[C@@H](N)CCSC)C(C)C)C(=O)N[C@@H](C)C(=O)N[C@@H](CC(C)C)C(=O)N[C@@H](CO)C(=O)N[C@H](C(=O)NCC(=O)N[C@@H](CS)C(=O)N[C@H](C(=O)O)[C@@H](C)O)C(C)C | 1.36
CC[C@H](C)[C@H](NC(=O)[C@@H]1CCCN1C(=O)[C@H](CC(N)=O)NC(=O)[C@@H](N)Cc1c[nH]c2ccccc12)C(=O)N[C@@H](CC(C)C)C(=O)N[C@@H](CC(C)C)C(=O)N[C@@H](Cc1c[nH]c2ccccc12)C(=O)N[C@@H](CCC(N)=O)C(=O)N1CCC[C@H]1C(=O)N[C@H](C(=O)N1CCC[C@H]1C(=O)N[C@H](C(=O)N[C@@H](Cc1c[nH]cn1)C(=O)N[C@H](C(=O)N[C@H](C(=O)O)C(C)C)[C@@H](C)O)C(C)C)[C@@H](C)CC | 2.06
CC(C)C[C@H](NC(=O)[C@@H](NC(=O)CN)C(C)C)C(=O)N[C@H](C(=O)N[C@@H](Cc1c[nH]cn1)C(=O)N1CCC[C@H]1C(=O)N[C@@H](CCC(N)=O)C(=O)N[C@@H](Cc1c[nH]c2ccccc12)C(=O)N[C@H](C(=O)N[C@@H](CC(C)C)C(=O)N[C@H](C(=O)N[C@@H](C)C(=O)N[C@@H](C)C(=O)N[C@@H](Cc1c[nH]cn1)C(=O)N[C@@H](CS)C(=O)O)[C@@H](C)O)C(C)C)C(C)C | 0.29
